Task for the reader: assign each of the following molecules its reported Mortality.
Tested on: methicillin-susceptible S. aureus strain ATCC 13709
Assay: murine model for lethal bacteremic peritonitis
Assay type: in vivo, female Swiss-Webster mice
Details: dose 1.25 mg/kg, subcutaneous, 72 h
Where a name gives a salt, the structure may show the parent alone.

Please review the entries below; each comes with its answer.
Molecule	Mortality
Nc1nc(/C(=N/OC2CCCC2)C(=O)N[C@@H]2C(=O)N3C(C(=O)O)=C(Sc4ccnn4-c4ccccc4)CS[C@H]23)cs1	9/10
Cc1nnc(SCC(=O)N[C@@H]2C(=O)N3C(C(=O)O)=C(Sc4ccnn4-c4ccccc4)CS[C@H]23)s1	6/10
O=C(Cc1ccccc1)N[C@@H]1C(=O)N2C(C(=O)O)=C(Sc3ccccc3I)CS[C@H]12	4/10
N#CCSCC(=O)N[C@@H]1C(=O)N2C(C(=O)O)=C(Sc3ccnn3-c3ccccc3)CS[C@H]12	6/10
CSCC(=O)N[C@@H]1C(=O)N2C(C(=O)O)=C(Sc3ccnn3-c3ccccc3)CS[C@H]12	2/10

// batch mode: one Mortality value per listed entry
1. N=C(N)SCc1ccccc1SC1=C(C(=O)O)N2C(=O)[C@@H](NC(=O)Cc3ccccc3CN)[C@H]2SC1 [Cmpd 101, trifluoroacetic acid salt]
2. CC(C)N=C(NC(C)C)SCC(=O)N[C@@H]1C(=O)N2C(C(=O)O)=C(Sc3ccccc3CSC(=N)N)CS[C@H]12 [Cmpd 125, trifluoroacetic acid salt]
3. N=C(N)SCc1ccc(SC2=C(C(=O)O)N3C(=O)[C@@H](NC(=O)/C(=N\O)c4csc(N)n4)[C@H]3SC2)c(CSC(=N)N)c1 [Cmpd 139, trifluoroacetic acid salt]
4. CCC(CC)O/N=C(\C(=O)N[C@@H]1C(=O)N2C(C(=O)O)=C(Sc3ccnn3-c3ccccc3)CS[C@H]12)c1csc(N)n1
5. N#Cc1ccccc1SC1=C(C(=O)O)N2C(=O)[C@@H](NC(=O)Cc3ccccc3)[C@H]2SC1
6. N=C(N)SCc1ccc(CC(=O)N[C@@H]2C(=O)N3C(C(=O)O)=C(Sc4ccccc4CSC(=N)N)CS[C@H]23)cc1 [Cmpd 97, trifluoroacetic acid salt]

1: 2/10; 2: 10/10; 3: 0/10; 4: 10/10; 5: 6/10; 6: 3/10

State the recorded Mortality for every item in the following list.
1. O=C(Cc1ccccc1)N[C@@H]1C(=O)N2C(C(=O)O)=C(Sc3cccnc3-n3cccn3)CS[C@H]12
2. O=C(CC1CC1)N[C@@H]1C(=O)N2C(C(=O)O)=C(Sc3ccnn3-c3ccccc3)CS[C@H]12
3. O=C(O)C1=C(Sc2ccnn2-c2ccccc2)CS[C@@H]2[C@H](NC(=O)/C(=N\O)c3ccccc3)C(=O)N12
4. N=C(N)SCCSCC(=O)N[C@@H]1C(=O)N2C(C(=O)O)=C(Sc3ccc(CSC(=N)N)cc3CSC(=N)N)CS[C@H]12 [Cmpd 142, trifluoroacetic acid salt]

1: 7/10; 2: 6/10; 3: 7/10; 4: 0/10

* * *

Tested on: methicillin-susceptible S. aureus strain ATCC 13709
Experiment: murine model for lethal bacteremic peritonitis
Format: in vivo, female Swiss-Webster mice
Conditions: dose 16 mg/kg, subcutaneous, 72 h
Can you tell me Mortality for the items I'm about to list?

Examples from the recorded data:
Compound	Subject Of Test	Value Reported
O=C(Cc1ccccc1)N[C@@H]1C(=O)N2C(C(=O)O)=C(Sc3ccccc3I)CS[C@H]12 [Cmpd 6]	methicillin-susceptible S. aureus strain ATCC 13709	0/10
O=C(Cc1ccccc1)N[C@@H]1C(=O)N2C(C(=O)O)=C(Sc3ccnn3-c3ccccc3)CS[C@H]12 [Cmpd 87]	methicillin-susceptible S. aureus strain ATCC 13709	0/10
CN[C@H](CC(C)C)C(=O)N[C@H]1C(=O)N[C@@H](CC(N)=O)C(=O)N[C@H]2C(=O)N[C@H]3C(=O)N[C@H](C(=O)N[C@H](C(=O)O)c4cc(O)cc(O)c4-c4cc3ccc4O)[C@H](O)c3ccc(c(Cl)c3)Oc3cc2cc(c3O[C@@H]2O[C@H](CO)[C@@H](O)[C@H](O)[C@H]2O[C@H]2C[C@](C)(N)[C@H](O)[C@H](C)O2)Oc2ccc(cc2Cl)[C@H]1O [Vancomycin, reference compound]	methicillin-susceptible S. aureus strain ATCC 13709	0/10
O=C(Cc1ccccc1)N[C@@H]1C(=O)N2C(C(=O)O)=C(Sc3cccnc3-c3ccccc3)CS[C@H]12 [Cmpd 81]	methicillin-susceptible S. aureus strain ATCC 13709	2/10

Query compound follows.
Result for N#CCC(=O)N[C@@H]1C(=O)N2C(C(=O)O)=C(Sc3ccccc3I)CS[C@H]12 [Cmpd 17] , tested on methicillin-susceptible S. aureus strain ATCC 13709, Mortality: 0/10

* * *

Test system: methicillin-susceptible S. aureus strain ATCC 13709
Experiment: murine model for lethal bacteremic peritonitis
Assay type: in vivo, female Swiss-Webster mice
Details: dose 1.25 mg/kg, subcutaneous, 72 h
Counter-ions that a name gives are not always drawn.
Readout Type: Mortality

Observe how each entry below is paired with its result.
Compound	Mortality
CSCC(=O)N[C@@H]1C(=O)N2C(C(=O)O)=C(Sc3ccc(CSC(=N)N)cc3CSC(=N)N)CS[C@H]12 [Cmpd 140, trifluoroacetic acid salt]	0/10
O=C(O)C1=C(Sc2ccnn2-c2ccccc2)CS[C@@H]2[C@H](NC(=O)C3SCCS3)C(=O)N12 [Cmpd 115]	9/10
CSCC(=O)N[C@@H]1C(=O)N2C(C(=O)O)=C(Sc3ccccc3CSC(=N)N)CS[C@H]12 [Cmpd 127]	4/10
N=C(N)NCCSCC(=O)N[C@@H]1C(=O)N2C(C(=O)O)=C(Sc3ccccc3CSC(=N)N)CS[C@H]12 [Cmpd 137, trifluoroacetic acid salt]	0/10

Working through the 6 compounds below one at a time, give Mortality for each.
1. N#CCC(=O)N[C@@H]1C(=O)N2C(C(=O)O)=C(Sc3ccnn3-c3ccccc3)CS[C@H]12 [Cmpd 88]
2. Nc1nc(/C(=N/OCC2CC2)C(=O)N[C@@H]2C(=O)N3C(C(=O)O)=C(Sc4ccnn4-c4ccccc4)CS[C@H]23)cs1 [Cmpd 108]
3. O=C(CS/C=C\Cl)N[C@@H]1C(=O)N2C(C(=O)O)=C(Sc3ccnn3-c3ccccc3)CS[C@H]12 [Cmpd 131]
4. N=C(N)NCCSCC(=O)N[C@@H]1C(=O)N2C(C(=O)O)=C(Sc3ccc(CSC(=N)N)cc3CSC(=N)N)CS[C@H]12 [Cmpd 141, trifluoroacetic acid salt]
5. N#Cc1ncccc1SC1=C(C(=O)O)N2C(=O)[C@@H](NC(=O)Cc3ccccc3)[C@H]2SC1 [Cmpd 102]
6. O=C(CSc1ccncc1)N[C@@H]1C(=O)N2C(C(=O)O)=C(Sc3ccnn3-c3ccccc3)CS[C@H]12 [Cmpd 110]

1: 1/10; 2: 8/10; 3: 7/10; 4: 1/10; 5: 7/10; 6: 7/10

For each of the compounds below, note its Mortality.
1. CN[C@H](CC(C)C)C(=O)N[C@H]1C(=O)N[C@@H](CC(N)=O)C(=O)N[C@H]2C(=O)N[C@H]3C(=O)N[C@H](C(=O)N[C@H](C(=O)O)c4cc(O)cc(O)c4-c4cc3ccc4O)[C@H](O)c3ccc(c(Cl)c3)Oc3cc2cc(c3O[C@@H]2O[C@H](CO)[C@@H](O)[C@H](O)[C@H]2O[C@H]2C[C@](C)(N)[C@H](O)[C@H](C)O2)Oc2ccc(cc2Cl)[C@H]1O [Vancomycin, reference compound]
2. O=C(CSc1ccccc1)N[C@@H]1C(=O)N2C(C(=O)O)=C(Sc3ccnn3-c3ccccc3)CS[C@H]12 [Cmpd 119]

["6/10", "10/10"]

* * *

System: methicillin-susceptible S. aureus strain ATCC 13709
Assay: murine model for lethal bacteremic peritonitis
Assay type: in vivo, female Swiss-Webster mice
Details: Staphylococcus aureus, ATCC13709, sc, 72 h, subcutaneous, two equal doses, S. aureus ATCC 13709 IP challenge, read-out: ED50
Counter-ions that a name gives are not always drawn.
Readout Type: ED50 (mg/kg)
Give bare numbers, in mg/kg.

> print(dat)
                                   compound  unit.spec  value.reported
1  N=C(N)SCCSCC(=O)N[C@@H]1C(=O)N2C(C(=O)O)=C(Sc3ccccc3CSC(=N)N)CS[C@H]12 [Cmpd 143, trifluoroacetic acid salt]      mg/kg            0.34

Pending compound:
Consider N=C(N)SCc1ccc(SC2=C(C(=O)O)N3C(=O)[C@@H](NC(=O)Cc4ccccc4)[C@H]3SC2)c(CSC(=N)N)c1 [Cmpd 138, trifluoroacetic acid salt] . Its measured ED50 is 0.075

* * *

System: methicillin-susceptible S. aureus strain ATCC 13709
Experiment: murine model for lethal bacteremic peritonitis
Format: in vivo, female Swiss-Webster mice
Conditions: dose 8 mg/kg, subcutaneous, 72 h
From the text: Groups of 5 female Swiss-Webster mice (Simonsen, Gilroy, Calif.) each are challenged by the intraperitoneal (IP) route with tenfold increments of a bacterial inoculum. This permits calculation of the mean lethal dose (LD50) and the LD100. […] PD50 s are similarly determined for several pathogens. The quantitative endpoints for the new drug are then compared with those obtained with reference antibiotics. […]
Readout Type: Mortality

Compound	Value Reported
O=C(Cc1ccccc1)N[C@@H]1C(=O)N2C(C(=O)O)=C(Sc3ccnn3-c3ccccc3)CS[C@H]12 [Cmpd 87]	0/10
N#CCC(=O)N[C@@H]1C(=O)N2C(C(=O)O)=C(Sc3ccccc3I)CS[C@H]12 [Cmpd 17]	0/10
CN[C@H](CC(C)C)C(=O)N[C@H]1C(=O)N[C@@H](CC(N)=O)C(=O)N[C@H]2C(=O)N[C@H]3C(=O)N[C@H](C(=O)N[C@H](C(=O)O)c4cc(O)cc(O)c4-c4cc3ccc4O)[C@H](O)c3ccc(c(Cl)c3)Oc3cc2cc(c3O[C@@H]2O[C@H](CO)[C@@H](O)[C@H](O)[C@H]2O[C@H]2C[C@](C)(N)[C@H](O)[C@H](C)O2)Oc2ccc(cc2Cl)[C@H]1O [Vancomycin, reference compound]	0/10
O=C(Cc1ccccc1)N[C@@H]1C(=O)N2C(C(=O)O)=C(Sc3ccccc3I)CS[C@H]12 [Cmpd 6]	1/10

Now for a further compound.
// Mortality lookup, compound = O=C(Cc1ccccc1)N[C@@H]1C(=O)N2C(C(=O)O)=C(Sc3cccnc3-c3ccccc3)CS[C@H]12 [Cmpd 81] , result: 5/10
